Where do these numbers come from? They come from ChEMBL document CHEMBL1212820.

For each entry below, report its pIC50 value.
- system: Serine/threonine-protein kinase B-raf (Homo sapiens, UniProt P15056, V600E)
- Sequence (P15056 2-766 V600E limits assumed): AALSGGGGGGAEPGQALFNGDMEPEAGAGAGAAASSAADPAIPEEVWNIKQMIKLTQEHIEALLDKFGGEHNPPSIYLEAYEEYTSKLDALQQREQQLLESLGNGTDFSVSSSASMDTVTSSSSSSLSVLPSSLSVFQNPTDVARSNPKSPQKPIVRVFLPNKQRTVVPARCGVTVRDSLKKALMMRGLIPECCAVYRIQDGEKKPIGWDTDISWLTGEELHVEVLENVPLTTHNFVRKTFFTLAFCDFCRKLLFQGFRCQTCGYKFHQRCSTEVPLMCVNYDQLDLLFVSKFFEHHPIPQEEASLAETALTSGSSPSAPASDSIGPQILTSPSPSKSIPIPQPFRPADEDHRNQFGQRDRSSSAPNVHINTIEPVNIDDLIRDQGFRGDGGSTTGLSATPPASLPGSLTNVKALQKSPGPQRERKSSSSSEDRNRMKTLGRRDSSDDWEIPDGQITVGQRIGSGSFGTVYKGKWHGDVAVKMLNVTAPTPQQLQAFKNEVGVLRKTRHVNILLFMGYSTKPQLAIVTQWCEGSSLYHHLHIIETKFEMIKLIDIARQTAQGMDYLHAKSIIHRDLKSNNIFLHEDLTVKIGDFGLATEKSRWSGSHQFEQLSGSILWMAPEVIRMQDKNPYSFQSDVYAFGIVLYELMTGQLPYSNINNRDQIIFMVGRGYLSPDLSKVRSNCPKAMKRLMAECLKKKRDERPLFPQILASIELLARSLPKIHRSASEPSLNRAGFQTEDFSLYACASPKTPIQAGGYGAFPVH
- assayRemarks: Inhibition of B-Raf V600E mutant
Give bare numbers, as −log10 of the molar value.

Example entries begin here.
• CN(C)c1nc2c(Oc3ccc(NC(=O)Nc4cc(C(C)(C)C)nn4-c4ccccc4)c(F)c3)ccnc2[nH]1 = 5.78
• CSc1cc(Oc2ccnc3ncc(=O)[nH]c23)ccc1NC(=O)Nc1ccc(Cl)c(C(F)(F)F)c1 = 7.15
• CC(C)(C)c1cccc(C(=O)Nc2cccc(Oc3ccnc4[nH]c(=O)cnc34)c2)c1 = 8.15

Consider the compound `Cc1nc2nccc(Oc3ccc(NC(=O)Nc4cc(C(C)(C)C)nn4-c4ccccc4)c4ccccc34)c2[nH]c1=O` and give its measured pIC50.
5.52

----------
- system: Serine/threonine-protein kinase B-raf (Homo sapiens, UniProt P15056, V600E)
- assayRemarks: Inhibition of BRAF V600E mutant-mediated ERK phosphorylation in human WM266.4 cells
- Format: cell-based
Provide the reported IC50 of each item.
Put down the number, then write its unit next to it.

Reference set (3 entries):
- O=C(Nc1ccc(Oc2ccnc3nc(N4CCOCC4)cnc23)cc1F)Nc1cc(C(F)(F)F)ccc1F: 3800 nM
- CN(C)c1cnc2c(Oc3ccc(NC(=O)Nc4cc(C(C)(C)C)nn4-c4ccccc4)c(F)c3)ccnc2n1: 1700 nM
- Cc1ccc(-n2nc(C(C)(C)C)cc2NC(=O)Nc2ccc(Oc3ccnc4[nH]c(=O)c(N)nc34)cc2F)cc1: 11 nM

We next turn to a different compound, shown below.
Quick one: IC50 of `CC(C)(C)c1cc(NC(=O)Nc2ccc(Oc3ccnc4ncc(=O)[nH]c34)c3ccccc23)n(-c2ccccc2)n1` ?
48 nM

----------
Kindly state bioavailability for each of the entries shown.
- assayRemarks: Oral bioavailability in BALB/cAnNCrl mouse at 10 mg/kg
- statedConditions: in vivo
Numbers only, in %.

Some solved cases for reference:
• Cc1ccc(-n2nc(C(C)(C)C)cc2NC(=O)Nc2cccc(Oc3ccnc4[nH]c(=O)cnc34)c2)cc1 = 27
• CSc1cc(Oc2ccnc3[nH]c(=O)cnc23)ccc1NC(=O)Nc1cc(C(C)(C)C)nn1-c1ccc(C)cc1 = 71

Provide bioavailability for all items below, preserving their order.
1. Cc1nc2c(Oc3ccc(NC(=O)Nc4cc(C(F)(F)F)ccc4F)c4ccccc34)ccnc2[nH]c1=O
2. Cc1ccc(-n2nc(C(C)(C)C)cc2NC(=O)Nc2ccc(Oc3ccnc4[nH]c(S)nc34)cc2F)cc1
3. CC(C)(C)c1cc(NC(=O)Nc2cccc(Oc3ccnc4[nH]c(=O)cnc34)c2)n(-c2ccccc2)n1

[4, 13, 6]

----------
- assayRemarks: Ratio of Cmax in BALB/cAnNCrl mouse to GI50 for human WM266.4 cells
For each entry below, report its Ratio value.
One number for each entry.

* CC(C)(C)c1cc(NC(=O)Nc2ccc(Oc3ccnc4[nH]c(=O)cnc34)c3ccccc23)n(-c2ccccc2)n1 | 130

Batch: Ratio for all items listed.
1. Cc1ccc(-n2nc(C(C)(C)C)cc2NC(=O)Nc2ccc(Oc3ccnc4[nH]c(=O)cnc34)cc2F)cc1
2. CSc1cc(Oc2ccnc3[nH]c(=O)cnc23)ccc1NC(=O)Nc1cc(C(C)(C)C)nn1-c1ccc(C)cc1
3. Cc1ccc(-n2nc(C(C)(C)C)cc2NC(=O)Nc2ccc(Oc3ccnc4[nH]c(S)nc34)cc2F)cc1

1. 2240
2. 101200
3. 76
